Recorded values, source ChEMBL document CHEMBL1201862.

System: MOLT-4
Assay: NCI tumour cell line growth inhibition, 48 h
Calls of active or inactive are those of the source. No stated cut-off is given here; in the data, active = GI50 up to about 1.1 µM and inactive = higher.
Choose one outcome from this list and give only that: yes (active), no (inactive)

CSC1(SC2=NCCN2)SC2(NCCN2)S1 :: no

Hi team, can someone confirm the assay call for COC(=O)C1=Cc2c(OC)cc(OC)c(OC)c2[C@H](c2cc(OC)c(OC)cc2OC)C1C(=O)OC (some centres undefined) ?
no

Next compound up: O=[N+]([O-])C1C2C=CC(C2)[C@H]1c1ccc(Cl)cc1Cl (some centres undefined)
no

For `COc1ccc(C(SCCO)(c2ccccc2)c2ccc(OC)cc2)cc1` then?
no

Next compound up: `C/C(=N/NC(=S)Nc1ccc([N+](=O)[O-])cc1)c1cccc(/C(C)=N\NC(=S)Nc2ccc([N+](=O)[O-])cc2)n1`
yes

Next up: O=C(CC1C(=O)Nc2ccccc2[S+]1[O-])Nc1ccccc1 (centres undefined)
no

Next compound up: CCOC(=O)c1csc(NC(=O)C(C)N2CCCCC2)n1 (centres undefined)
no

And then `Oc1nc(-c2ccc3ccccc3c2)nc2ccccc12` , what is it?
no

What do you have for `COc1cc(C(=C2SCCS2)c2nccc3cc(OC)c(OC)cc23)c([N+](=O)[O-])cc1OC` ?
no

Queued: COc1ccc(N2C(=O)[C@@H]3[C@H](C2=O)c2[nH]c4ccccc4c2C2CCC(C(C)(C)C)C[C@@H]23)cc1 (some centres undefined)
no

Entry C=C[C@@](C)(/C=C/c1ccc(O)cc1)CCC=C(C)C [BAKUCHIOL] please
no
